Please respond with reported Kd for every item in the list.
# STUDY TARGET: HIS-PDZ2 protein (PSD-95 PDZ2, residues 155-249, with tag …) (human, UniProt P78352 155-249)
# METHOD DESCRIPTION: ITC
Ends that are not written are not given here.
Answers are plain numbers, in µM.

BINDER: {PEG4‑diacid}-IESDV (also: dimer: two peptides N-terminally joined via PEG4-diacid, Dimeric ligand) [(IESDV)2PEG4 (78)]
Kd, µM: 3.3

Okay, next one:
Entry IESDV (also called pentapeptide (7)) [IESDV (7)] has what Kd? 2.6
